- MEASURED ON: T1, human GM-CSFRα, full length on cells (human, UniProt P15509 23-400)
- T1 sequence: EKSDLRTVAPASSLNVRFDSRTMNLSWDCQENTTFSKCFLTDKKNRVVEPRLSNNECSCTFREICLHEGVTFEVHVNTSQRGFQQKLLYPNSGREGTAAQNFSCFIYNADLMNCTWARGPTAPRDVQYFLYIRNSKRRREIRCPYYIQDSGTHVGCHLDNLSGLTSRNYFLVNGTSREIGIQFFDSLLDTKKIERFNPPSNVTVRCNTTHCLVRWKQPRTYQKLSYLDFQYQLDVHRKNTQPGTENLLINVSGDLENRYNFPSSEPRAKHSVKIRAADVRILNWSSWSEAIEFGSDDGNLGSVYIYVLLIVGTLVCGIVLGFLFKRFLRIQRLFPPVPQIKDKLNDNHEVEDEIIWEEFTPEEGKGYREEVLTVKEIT
- ASSAY METHOD TEXT: cell-based or functional assay

BINDER: E35-scFv HT28L (scFv, V domains shown) VH: QMQLVQSGAEVKKPGASVKVSCKVSGYLLTELSIHWVRQAPGKGLEWMGGFDPEDGETIYAQKFQGRVTMTGDTSTDTAYLELSSLRSEDTALYYCATGRYTSLATTYGFDYWGQGTLVTVSS VL: EIVMTQSPATLSLSPGERATLSCRASQSVSSYLAWYQQKPGQAPRLLIYGASSRATGIPDRFSGSGSGTDFTLTISRLEPEDFAVYYCQQYDNWPYTFGQGTKLEIK
IC50, TF-1 cell proliferation, µg/mL: 0.1

BINDER: E35-scFv LS30F (scFv, V domains shown) VH: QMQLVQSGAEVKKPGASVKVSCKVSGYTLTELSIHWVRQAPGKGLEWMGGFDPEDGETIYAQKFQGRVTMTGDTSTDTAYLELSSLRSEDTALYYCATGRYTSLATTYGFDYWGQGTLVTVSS VL: EIVMTQSPATLSLSPGERATLSCRASQSVFSYLAWYQQKPGQAPRLLIYGASSRATGIPDRFSGSGSGTDFTLTISRLEPEDFAVYYCQQYDNWPYTFGQGTKLEIK
IC50, TF-1 cell proliferation, µg/mL: 0.16

BINDER: E35-scFv HE31R (scFv, V domains shown) VH: QMQLVQSGAEVKKPGASVKVSCKVSGYTLTRLSIHWVRQAPGKGLEWMGGFDPEDGETIYAQKFQGRVTMTGDTSTDTAYLELSSLRSEDTALYYCATGRYTSLATTYGFDYWGQGTLVTVSS VL: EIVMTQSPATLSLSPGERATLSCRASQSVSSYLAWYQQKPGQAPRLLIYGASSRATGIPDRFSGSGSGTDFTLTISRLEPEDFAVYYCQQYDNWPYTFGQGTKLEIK
IC50, TF-1 cell proliferation, µg/mL: 0.31
